Assay: chemical genetic growth profiling, strain panel (AID 1159580);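 also: tested at 20 µM; growth read once vehicle control cultures reached saturation at 30 °C; 1 = growth at the plate median or of vehicle wells; lower values mean less growth of the strain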
Conditions: S. cerevisiae deletion strains, growth OD, locus YIR030C, strain dcg1, active compounds read low
The campaign covered roughly 5,500 compounds. About 2,000 (36%) were called active. Roughly 18% stayed inconclusive and do not appear here. The list shows a part of the results.
measured-property: normalized growth
One number for each entry.

The following compounds have reported results that may help.
>>> measured_number("Cc1c(Cl)cccc1Nc1ccccc1C(=O)O")
0.792
>>> measured_number("C=C1CCC2C(CC2(C)C)C(=C)CC/C1=N\\O (stereo not drawn)")
0.993
>>> measured_number("CO[C@@]1(NC(=O)CSCC#N)C(=O)N2C(C(=O)O)=C(CSc3nnnn3C)CSC21 (stereo partly drawn)")
1.03
>>> measured_number("Cc1ccc(Cl)c(Nc2ccccc2C(=O)O)c1Cl")
0.868
>>> measured_number("C=C1C(C)C2C(Cc3ccccc3)NC(=O)C23OC(=O)/C=C/C(=O)CCCC(C)C/C=C/C3C1O (stereo not drawn)")
1.01

Dear reader, for each entry below, please note its normalized growth.
1. NC(=O)c1cccc(N)c1
2. NS(=O)(=O)c1cc2c(cc1Cl)NC(C(Cl)Cl)NS2(=O)=O (stereo not drawn)
3. COc1ccc(CCN2CCC(Nc3nc4ccccc4n3Cc3ccc(F)cc3)CC2)cc1
4. CC(C)NCC(O)c1cc(O)cc(O)c1 (stereo not drawn)
5. O=C(O)c1ccccc1-c1c2cc(Br)c(=O)cc-2oc2[c]([Hg])c(O)c(Br)cc12
6. C=C1C(=O)O[C@@H]2C3O[C@]3(C)CC/C=C(\C)CC[C@@H]12 (stereo partly drawn)
7. CO/N=C(\C(=O)N[C@@H]1C(=O)N2C(C(=O)O)=C(COC(C)=O)CS[C@H]12)c1csc(N)n1
8. Nc1ccc(N=Nc2ccccc2)c(N)n1

[0.996, 1.02, 0.99, 0.978, 1, 0.912, 0.996, 1.02]

Dear reader, for each entry below, please note its normalized growth.
1. O=c1cc[nH]c(=S)[nH]1
2. CCN(CC)CCOC(=O)c1ccc(N)cc1
3. C=C1C(C)C2C(Cc3ccccc3)NC(=O)C23OC(=O)/C=C/C(O)CCCC(C)C/C=C/C3C1O (stereo not drawn)
4. CC1OC1P(=O)(O)O (stereo not drawn)

1. 1.01
2. 0.993
3. 0.998
4. 0.985

Dear reader, for each entry below, please note its normalized growth.
1. Cc1ccc(C)c(OCCCC(C)(C)C(=O)O)c1
2. Cn1c(=O)c2[nH]cnc2n(C)c1=O
3. COc1c(OC)c2occc2c2oc(=O)ccc12
4. C[C@@H]1C(=O)OC2[C@H](O)C34[C@@H]5OC(=O)[C@@]3(O[C@@H]3OC(=O)[C@H](O)[C@@]34[C@H](C(C)(C)C)[C@H]5O)[C@]21O (stereo partly drawn)
5. COc1cc2c(cc1OC)C1Cc3ccc(OC)c(OC)c3CN1CC2 (stereo not drawn)
6. Cc1cccc(Nc2ccccc2C(=O)O)c1C

1. 0.931
2. 0.97
3. 0.962
4. 1.02
5. 0.987
6. 0.863

Dear reader, for each entry below, please note its normalized growth.
1. C=C1CCC(=O)C(C)CCC2C1CC2(C)C (stereo not drawn)
2. O=C1OC(c2ccc(O)cc2)(c2ccc(O)cc2)c2ccccc21
3. Oc1ccc(Cl)cc1
4. CO/N=C(\C(=O)N[C@@H]1C(=O)N2C(C(=O)O)=C(CSc3nc(=O)c(O)nn3C)CS[C@H]12)c1csc(N)n1
5. CC(C)[C@@H]1CC[C@@H](C)C[C@H]1O

[0.998, 0.985, 0.98, 0.961, 1.01]
